Data credit: PubChem BioAssay (NCI)

# growth inhibition per entry
- assay-text: NCI Yeast Anticancer Drug Screen. Data for the mlh1 rad18 strain (AID 175)
- condition-set: S. cerevisiae mlh1 rad18 strain growth inhibition; at 5.0 µM (retest, dose inferred, filed as 0.5); hits give high values
- Procedure: Growth inhibition of yeast strains with defined genetic alterations is measured as a screen for potential anti-cancer activity. Selected strains with alterations in DNA damage repair or cell cycle control were exposed to compounds and growth inhibition was measured relative to vehicle treated controls. The strain used in this assay is mlh1 rad18
This is part of a sample that, as a whole, favours compounds with a hit. Of some 79,000 tested, about 15% had one in any assay.
recorded-metric: growth inhibition (%)

compound=C[C@]12CC[C@H]3[C@@H](CCC4=CC(=O)CC[C@@H]43)[C@@H]1CC[C@@H]2OC1(O)C(=O)c2ccccc2C1=O recorded_metric="growth inhibition" output_unit=% value_measured=11
compound="CCN(CC)P1(=O)OC(c2ccccc2)=CCN1c1ccc(OC)cc1 (centres undefined)" recorded_metric="growth inhibition" output_unit=% value_measured=2
compound=O=C(CBr)Nc1ccccc1Cl recorded_metric="growth inhibition" output_unit=% value_measured=18
compound="COC12C(COC(C)=O)C3=C(C(=O)C(C)=C(N4CCCCC4)C3=O)N1CC1NC12 (centres undefined)" recorded_metric="growth inhibition" output_unit=% value_measured=98
compound=CCN(CC)CCBr recorded_metric="growth inhibition" output_unit=% value_measured=5
compound="NC(N)=N/N=C1\\C(=O)N(c2ccc(Cl)cc2)C(=O)C1C(=O)Nc1ccc(Cl)cc1 (centres undefined)" recorded_metric="growth inhibition" output_unit=% value_measured=2
compound=O=[N+]([O-])c1ccccc1 recorded_metric="growth inhibition" output_unit=% value_measured=6
compound="Cc1c(N)nc([C@H](CC(N)=O)NC[C@H](N)C(N)=O)nc1C(=O)N[C@H](C(=O)N[C@H](C)[C@@H](O)CC(=O)N[C@H](C(=O)NC(O[C@@H]1O[C@@H](C)[C@@H](N)[C@@H](O)[C@H]1O)C(O)c1nc(-c2nc(C(=O)NCCCCN)cs2)cs1)[C@@H](C)O)[C@@H](O[C@@H]1O[C@@H](CO)[C@@H](O)[C@H](O)[C@@H]1O[C@H]1O[C@H](CO)[C@@H](O)[C@H](OC(N)=O)[C@@H]1O)c1c[nH]cn1 (some centres undefined)" recorded_metric="growth inhibition" output_unit=% value_measured=94
compound="CC(Cc1ccccc1)N(C)Cc1ccc(-c2ccccc2)o1 (centres undefined)" recorded_metric="growth inhibition" output_unit=% value_measured=12
compound=N#Cc1ccc(N=Cc2c([O-])ccc3ccccc23)cc1.[C-]#[O+].[C-]#[O+].[Ir] recorded_metric="growth inhibition" output_unit=% value_measured=13
compound="CC(C)C1=CC23CCC4C(C)(C(=O)O)CCCC4(C)C2CC1OO3 (centres undefined)" recorded_metric="growth inhibition" output_unit=% value_measured=27
compound=c1cc[c]([Sn]([c]2ccccc2)([c]2ccccc2)[CH]2CCCCC2)cc1 recorded_metric="growth inhibition" output_unit=% value_measured=19
compound="CC(Cc1ccccc1)N(C)Cc1nc(C2CCC([N+](=O)[O-])O2)no1 (centres undefined)" recorded_metric="growth inhibition" output_unit=% value_measured=47
compound=Oc1cc(Cl)c(Cl)cc1Cl recorded_metric="growth inhibition" output_unit=% value_measured=18
compound=O=c1c2ccccc2[se]n1-c1cccnc1 recorded_metric="growth inhibition" output_unit=% value_measured=-14
compound=ClC1=NSSC1(Cl)Cl recorded_metric="growth inhibition" output_unit=% value_measured=17
compound=CC[C@H](C)c1occ2c(O)c(C(=O)O)c(=O)cc-2c1C recorded_metric="growth inhibition" output_unit=% value_measured=88
compound=O=C(O)c1ccccc1[Se][Se]c1ccccc1C(=O)O recorded_metric="growth inhibition" output_unit=% value_measured=56
compound="CC1CC(C)CC(C)C(O)/C(C#N)=C/C=C/CC(C2CCCC2C(=O)O)OC(=O)CC(O)C(C)C1 (centres undefined)" recorded_metric="growth inhibition" output_unit=% value_measured=98
